Attribution: PubChem BioAssay (NCI)

# Tested on: SNB-19 CNS
# EXPERIMENT_DESCRIPTION: NCI-60 one-dose screen, 48 h (100 = growth as untreated, 0 = no growth, -100 = all killed)
# CONDITION_SET: 10 µM
# Description: Growth inhibition of the SNB-19 human tumor cell line is measured as a screen for anti-cancer activity. Cells are grown in 96 well plates and exposed to the test compound for 48 hours. Compounds are tested at a single concentration, which is 10^-5 M for most compounds. The reported endpoint is percent growth (GI% or GIPRCNT), where numbers from 0 - 100% represent growth inhibition, and numbers from -100% - 0 represent cell death. For example, a value of 40 represents 60% growth inhibition. […]
This is part of a sample that, as a whole, favours compounds with a hit. Of some 83,000 tested, about 20% had one in any assay.
MEASUREMENT_LABEL: growth (%)

[
  {
    "COMPOUND": "Cc1ccc(CNc2nc3ccc(OC/C(=C/F)CN)cc3o2)cn1",
    "TGT": "SNB-19 CNS",
    "ENDPOINT_RESULT": 98.8
  },
  {
    "COMPOUND": "CC1=C[C@H]2O[C@@H]3C[C@@H](O)[C@](C)([C@@]2(C)CC1)[C@@]31CO1",
    "TGT": "SNB-19 CNS",
    "ENDPOINT_RESULT": 18.9
  },
  {
    "COMPOUND": "CC1=C(CCC=NNC(N)=O)C2=C(C)C3(CC3)[C@@](C)(O)C(=O)C2=C1",
    "TGT": "SNB-19 CNS",
    "ENDPOINT_RESULT": 3.45
  },
  {
    "COMPOUND": "COC(=O)[C@H]1[C@@H](O)[C@@]2(O)c3c(OC)cc(OC)cc3O[C@@]2(c2ccc(OC)cc2)[C@@H]1c1ccccc1",
    "TGT": "SNB-19 CNS",
    "ENDPOINT_RESULT": -4.86
  },
  {
    "COMPOUND": "C[C@@H]1CCC/C=C/[C@H]2C[C@@H](O)C[C@@H]2[C@@H](O)/C=C/C(=O)O1",
    "TGT": "SNB-19 CNS",
    "ENDPOINT_RESULT": 30.2
  },
  {
    "COMPOUND": "CN1C(=O)[C@]23SSC1(C)C(=O)N2[C@H]1Nc2ccccc2C1([C@@]12c4ccccc4N[C@@H]1N1C(=O)C4(C)SS[C@]1(C(=O)N4C)[C@H]2O)[C@@H]3O (stereo partly drawn)",
    "TGT": "SNB-19 CNS",
    "ENDPOINT_RESULT": -99.4
  },
  {
    "COMPOUND": "CC1=C2C(=O)[C@](C)(CO)C=C2C(=O)[C@](C)(O)C12CC2",
    "TGT": "SNB-19 CNS",
    "ENDPOINT_RESULT": 60.2
  },
  {
    "COMPOUND": "N#Cc1nc(-c2ccccc2)oc1N1CCC(S(=O)(=O)F)CC1",
    "TGT": "SNB-19 CNS",
    "ENDPOINT_RESULT": 98.6
  },
  {
    "COMPOUND": "CC1=C2C(=C[C@@](C)(C=O)[C@@H]2O)C(=O)[C@](C)(O)C12CC2",
    "TGT": "SNB-19 CNS",
    "ENDPOINT_RESULT": 20.7
  },
  {
    "COMPOUND": "CCC(C)[C@H]1C(=O)O[C@H](C(C)C)C(=O)N(C)[C@@H](C(C)C)C(=O)O[C@H](C(C)C)C(=O)N(C)[C@@H](C(C)C)C(=O)O[C@H](C(C)C)C(=O)N1C (stereo partly drawn)",
    "TGT": "SNB-19 CNS",
    "ENDPOINT_RESULT": 21.6
  },
  {
    "COMPOUND": "CC(C)(O)/C=C/C(=O)[C@](C)(O)[C@H]1[C@H](O)C[C@@]2(C)[C@H]3CC=C4[C@@H](C[C@H](O)C(=O)C4(C)C)[C@]3(C)C(=O)C[C@]12C",
    "TGT": "SNB-19 CNS",
    "ENDPOINT_RESULT": 8.14
  },
  {
    "COMPOUND": "NC1CCc2cc(O)c(O)cc2C1 (stereo not drawn)",
    "TGT": "SNB-19 CNS",
    "ENDPOINT_RESULT": 98
  },
  {
    "COMPOUND": "N#Cc1c(-n2c(Br)c(Br)c3cc(Br)ccc32)[nH]c2c(Br)cc(Br)cc12",
    "TGT": "SNB-19 CNS",
    "ENDPOINT_RESULT": 15
  },
  {
    "COMPOUND": "CC1=C[C@H]2O[C@@H]3C[C@H]4OC(=O)/C=C\\C=C\\[C@H]([C@@H](C)O)OCC/C(C)=C/C(=O)OC[C@@]2(CC1)[C@]4(C)[C@]31CO1",
    "TGT": "SNB-19 CNS",
    "ENDPOINT_RESULT": -6.9
  },
  {
    "COMPOUND": "CN(CCF)/N=N/c1nc[nH]c1C(N)=O",
    "TGT": "SNB-19 CNS",
    "ENDPOINT_RESULT": 98.8
  },
  {
    "COMPOUND": "COc1cc2c(O[C@@H]3OC[C@H](OC(C)=O)[C@H](OC(C)=O)[C@H]3O)c3c(c(-c4ccc5c(c4)OCO5)c2cc1OC)C(=O)OC3",
    "TGT": "SNB-19 CNS",
    "ENDPOINT_RESULT": 58.7
  },
  {
    "COMPOUND": "CC1=C2C(=C[C@@](C)(COC(=O)c3ccc(S(=O)(=O)F)cc3)[C@@H]2O)C(=O)[C@](C)(O)C12CC2",
    "TGT": "SNB-19 CNS",
    "ENDPOINT_RESULT": 3.51
  },
  {
    "COMPOUND": "COc1cccc2c1cc([N+](=O)[O-])c1c(C(=O)O)cc3c(c12)OCO3",
    "TGT": "SNB-19 CNS",
    "ENDPOINT_RESULT": 102
  },
  {
    "COMPOUND": "CC(=O)O[C@@H]1[C@@H]2O[C@H]2[C@@](C)(O)C(=O)[C@@H](C)C/C=C/[C@H]2[C@@H]3O[C@]3(C)[C@@H](C)C3[C@H](Cc4ccccc4)NC(=O)[C@@]312 (stereo partly drawn)",
    "TGT": "SNB-19 CNS",
    "ENDPOINT_RESULT": 55.1
  },
  {
    "COMPOUND": "CC1=C[C@H]2O[C@@H]3C[C@H]4OC(=O)/C=C\\C=C\\[C@H]([C@@H](C)O)OCC[C@@H](C)[C@H](O)C(=O)OC[C@@]2(CC1)[C@]4(C)[C@]31CO1",
    "TGT": "SNB-19 CNS",
    "ENDPOINT_RESULT": -14.3
  },
  {
    "COMPOUND": "C=C1[C@@H](C)C2[C@H](Cc3ccccc3)NC(=O)[C@]23[C@H](OC(C)=O)/C=C/[C@@](C)(O)C(=O)[C@@H](C)C/C=C/[C@H]3[C@@H]1O (stereo partly drawn)",
    "TGT": "SNB-19 CNS",
    "ENDPOINT_RESULT": 50.4
  },
  {
    "COMPOUND": "CC(C)=CCc1c2c(c(O)c3c1O[C@]14C(=C[C@@H]5C[C@H]1C(C)(C)O[C@@]4(C/C=C(/C)C(=O)O)C5=O)C3=O)C=CC(C)(C)O2",
    "TGT": "SNB-19 CNS",
    "ENDPOINT_RESULT": -50.9
  },
  {
    "COMPOUND": "COc1cc2c(cc1OC)[C@@H]1N(CC2)C(=O)c2ccccc2[C@@]1(C)C(=O)O",
    "TGT": "SNB-19 CNS",
    "ENDPOINT_RESULT": 98.4
  }
]
